- Test Target: human Kv4.3 (Homo sapiens)
- Construct: expressed in transfected cells; host or cells: transgenic C. elegans strain UG1755 (N2 injected with plasmid pGV8, integrated array)
- Method: C. elegans based high-throughput screen for Kv4.3 modulators (pharynx pumping, Calcein AM uptake), transgenic strain UG1755
- Assay type: in vivo
- Condition Context: EC50 on N2 divided by EC50 on the Kv4.3 expressing strain; cut-off 1.8
Test Readout: Ratio N2/Kv4.3

O=C(N[C@H]1CCCC[C@@H]1OCc1ccccc1)c1csc(Nc2ccc(Cl)cc2)n1	2.2
COC[C@H](Cc1ccccc1)NC(=O)c1csc(Nc2cc(C)cc(C)c2)n1	3.5

a: O=C(N[C@@H]1CCC[C@H]1OCc1ccccc1)c1csc(Nc2ccc(F)cc2)n1
b: O=C(N[C@@H]1CCCC[C@H]1OCc1ccccc1)c1csc(Nc2ccc(F)cc2)n1
Pick one: a or b . Which has the bigger Ratio N2/Kv4.3 number? Output the label that corresponds to your choice.
a

A: CCCN(Cc1ccc([N+](=O)[O-])cc1)C(=O)c1csc(Nc2ccc(Cl)cc2)n1
B: Cc1nc(Nc2ccc(Br)cc2)sc1C(=O)N[C@H](C)c1ccc2ccccc2c1
Which numeric Ratio N2/Kv4.3 is bigger, that of A or that of B ? Use the label to indicate which entry you chose.
B
(B: 4.7, A: 2.0)

* * *

- Test Target: human Kv4.3/KChIP2.2 potassium channel (Homo sapiens, UniProt Q9UK17)
- Construct: expressed in transfected cells
- Method: Whole cell patch clamp, CHO-K1 cells stably expressing human Kv4.3/KChIP2.2
- Format: cell-based
- Condition Context: CHO-K1; remaining peak height measured after application of the compound and relative to the blank; read-out: Kv4.3 peak in %
Test Readout: remaining activity at 1 µM (%)

COc1ccccc1Nc1nccc(C(=O)N[C@H]2CCC[C@@H]2OCc2ccccc2)n1	99
COc1ccccc1Nc1nc(C)c(C(=O)N[C@H]2CCC[C@@H]2OCc2ccccc2)o1	99
Cc1nc(Sc2ccccc2)sc1C(=O)N[C@H]1CCC[C@@H]1OCc1ccccc1	90
Cc1nc(Nc2cccc3ccccc23)sc1C(=O)N[C@H]1CCC[C@@H]1OCc1ccccc1	89
COc1ccccc1Nc1nc(C)c(C(=O)N2CCC(n3c(=O)[nH]c4ccccc43)CC2)s1	97
COc1ccccc1Nc1nc(C)c(C(=O)NCc2ccc(-c3cccs3)cc2)s1	89

* * *

Parameter melting point: see the listing below.

Examples with their reported melting point follow.
COc1ccccc1Nc1ncc(C(=O)NCc2ccc(F)c(C(F)(F)F)c2)[nH]1	227.9 to 230 °C
COc1ccccc1Nc1nc(C)c(C(=O)NCc2ccc(Br)cc2)s1	150.7 to 154.2 °C
COc1ccccc1Nc1nc(C)c(C(=O)NCc2ccccc2)s1	153.6 to 156.2 °C
Cc1nc(NCc2ccccc2)sc1C(=O)N[C@H]1CCC[C@@H]1OCc1ccccc1	185.1 to 185.8 °C
COc1ccccc1Nc1nc(C)c(C(=O)NCc2ccccc2-c2ccccc2)s1	128.4 to 132 °C
CCOC(=O)c1cccc(Nc2nc(C)c(C(=O)N[C@H]3CCC[C@@H]3OCc3ccccc3)s2)c1	145.7 to 148 °C
COc1ccccc1Nc1nc(C)c(C(=O)NCCOCc2ccccc2)s1	44.6 to 47.6 °C
COc1ccccc1Nc1nc(C)c(C(=O)NCc2cccc(Br)c2)s1	161.3 to 164.1 °C
Cc1nc(NC(=O)c2ccccc2)sc1C(=O)N[C@H]1CCC[C@@H]1OCc1ccccc1	97.4 to 110.6 °C
Cc1nc(Nc2ccncc2)sc1C(=O)N[C@H]1CCC[C@@H]1OCc1ccccc1	78.1 to 81.7 °C

Lab note: measured melting point of COc1ccccc1Nc1nccc(C(=O)N[C@H]2CCC[C@@H]2OCc2ccccc2)n1 was 97.3 to 99.8 °C

The compound identified as COc1ccccc1Nc1nc(C)c(C(=O)Nc2ccccc2)s1 registered its melting point at 183.5 to 188.1 °C

The compound COc1ccc(CNC(=O)c2sc(Nc3ccccc3OC)nc2C)cc1 showed melting point equal to 143.9 to 144.8 °C

For Cc1nc(Sc2ccccc2)sc1C(=O)N[C@H]1CCC[C@@H]1OCc1ccccc1 the compound record lists melting point as 129.5 to 132.4 °C

The recorded melting point for entry COc1ccccc1Nc1nc(C)c(C(=O)N2Cc3ccccc3C2)s1 equals 147.6 to 149.6 °C

Just so you know, measured melting point for COC(=O)[C@@H](NC(=O)c1sc(Nc2ccccc2OC)nc1C)c1ccccc1 came out at 133.5 to 135.7 °C

Sure, the documented melting point for COc1ccccc1Nc1ccc(C(=O)N[C@H]2CCC[C@@H]2OCc2ccccc2)s1 is 69.7 to 71.6 °C

For this compound ( COc1cccc(Nc2nc(C)c(C(=O)N[C@H]3CCC[C@@H]3OCc3ccccc3)s2)c1 ), measured melting point is 152.8 to 155.9 °C

* * *

- Test Target: human Kv4.3/KChIP2.2 potassium channel (Homo sapiens)
- Construct: expressed in transfected cells
- Method: Whole cell patch clamp, CHO-K1 cells stably expressing human Kv4.3/KChIP2.2
- Format: cell-based
- Condition Context: CHO-K1; remaining peak height measured after application of the compound and relative to the blank; read-out: Kv4.3 peak in %
- Protocol: For this experiment, a recombinant CHO-K1 cell line stably expressing the human Kv4.3/KChIP2.2 potassium channel was used. […] Activity of the human Kv4.3/KChIP2.2 channel was investigated using the patch clamp technique in its whole cell mode. This means that the current needed for clamping the whole cell expressing the K^+-channel protein to a specific potential was measured. […]
Test Readout: remaining activity at 1 µM (%)

COc1ccccc1Nc1nc(C)c(C(=O)NCc2ccsc2)s1 [Compound 118]	94
COc1ccccc1Nc1nc(C)c(C(=O)NCc2ccc(Oc3ccccc3)cc2)s1 [Compound 102]	89
COc1ccccc1Nc1nc(C)c(C(=O)NCc2ccc(C)cc2)s1 [Compound 142]	80
COc1ccccc1Nc1nc(C)c(C(=O)N2CCCCC2Cc2ccccc2)s1 (stereo not drawn) [Compound 86]	102
COc1ccccc1Nc1nc(C)c(C(=O)NCc2ccc(-c3csnn3)cc2)s1 [Compound 161]	89
COc1ccccc1Nc1nc(C)c(C(=O)NCCOCc2ccccc2)s1 [Compound 88]	95
COc1ccccc1Nc1nc(C)c(C(=O)NCc2ccc(Br)cc2)s1 [Compound 108]	82
COc1ccccc1Nc1ccc(C(=O)N[C@H]2CCC[C@@H]2OCc2ccccc2)s1 [Compound 75]	81
Cc1nc(NCc2ccccc2)sc1C(=O)N[C@H]1CCC[C@@H]1OCc1ccccc1 [Compound 211]	98

* * *

- Test Target: human Kv4.3/KChIP2.2 potassium channel (Homo sapiens)
- Construct: expressed in transfected cells
- Sequence (Q9UK17 1-655): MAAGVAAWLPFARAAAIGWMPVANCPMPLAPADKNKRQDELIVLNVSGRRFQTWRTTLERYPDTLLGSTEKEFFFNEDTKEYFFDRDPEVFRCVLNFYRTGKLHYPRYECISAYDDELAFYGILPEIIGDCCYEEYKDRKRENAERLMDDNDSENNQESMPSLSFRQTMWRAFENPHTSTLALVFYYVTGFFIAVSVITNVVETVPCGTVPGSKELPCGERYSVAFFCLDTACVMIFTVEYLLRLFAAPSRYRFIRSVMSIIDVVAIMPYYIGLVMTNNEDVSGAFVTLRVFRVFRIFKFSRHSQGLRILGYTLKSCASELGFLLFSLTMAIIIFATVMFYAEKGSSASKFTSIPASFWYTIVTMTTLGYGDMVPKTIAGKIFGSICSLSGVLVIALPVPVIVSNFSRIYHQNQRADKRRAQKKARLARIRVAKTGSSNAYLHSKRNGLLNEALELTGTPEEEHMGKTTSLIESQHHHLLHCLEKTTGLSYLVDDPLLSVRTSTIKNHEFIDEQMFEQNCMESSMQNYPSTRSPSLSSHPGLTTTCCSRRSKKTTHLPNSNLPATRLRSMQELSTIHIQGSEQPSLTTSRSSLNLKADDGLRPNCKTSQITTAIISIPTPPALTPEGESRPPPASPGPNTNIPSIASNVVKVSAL
- Method: Whole cell patch clamp, CHO-K1 cells stably expressing human Kv4.3/KChIP2.2
- Type: cell-based
- Condition Context: CHO-K1; remaining peak height measured after application of the compound and relative to the blank; read-out: Kv4.3 peak in %
Test Readout: remaining activity at 1 µM (%)

COc1ccccc1Nc1nc(C)c(C(=O)NCc2cc(C)ccc2C)s1	99
COc1ccccc1Nc1nc(C)c(C(=O)N2CCN(Cc3ccccc3)C[C@@H]2Cc2ccccc2)s1	95
COc1ccccc1Nc1nc(C)c(C(=O)Nc2ccccc2)s1	91
COc1ccccc1Nc1nc(C)c(C(=O)NCc2ccc(N(C)C)cc2)s1	77
COc1ccccc1Nc1nc(C)c(C(=O)NCc2ccc(CNC(C)=O)cc2)s1	99
COc1ccccc1Nc1nc(C)c(C(=O)OCc2ccccc2)s1	72
Cc1nc(Nc2cccc3cccnc23)sc1C(=O)N[C@H]1CCC[C@@H]1OCc1ccccc1	89
CCOC(=O)c1cccc(Nc2nc(C)c(C(=O)N[C@H]3CCC[C@@H]3OCc3ccccc3)s2)c1	93
